Each entry below carries its recorded inhibition.
# TARGET_SYSTEM: Nociceptin receptor (Homo sapiens)
# Sequence (P41146 whole entry): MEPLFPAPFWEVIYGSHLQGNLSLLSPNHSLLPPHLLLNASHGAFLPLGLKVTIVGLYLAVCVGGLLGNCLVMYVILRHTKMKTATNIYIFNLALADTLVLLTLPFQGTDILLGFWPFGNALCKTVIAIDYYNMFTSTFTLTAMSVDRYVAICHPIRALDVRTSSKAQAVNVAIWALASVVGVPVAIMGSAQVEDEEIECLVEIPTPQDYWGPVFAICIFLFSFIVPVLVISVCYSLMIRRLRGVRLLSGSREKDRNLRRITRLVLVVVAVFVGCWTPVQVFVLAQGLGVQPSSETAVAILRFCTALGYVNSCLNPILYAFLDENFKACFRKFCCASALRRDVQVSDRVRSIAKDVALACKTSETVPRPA
# EXPERIMENT_NOTES: Inhibitory activity against human orphanin FQ receptor expressed in recombinant HEK 293 cells
# Type: cell-based
# Design: concentration or dose not given beside the values
# REPORTED_CONDITIONS: HEK293; concentration not given here
Number in %, nothing else.

Solved entries (count: 6):
query_smiles=N#CC1(c2ccccc2)CCN(Cc2ccc(F)cc2)CC1 measurement=55
query_smiles=N#CC1(c2ccccc2)CCN(Cc2ccc(Cl)c(Cl)c2)CC1 measurement=65
query_smiles=O=C(COCc1ccccc1)N1CCC(O)(c2ccc(Br)cc2)CC1 measurement=50
query_smiles=OC1(c2ccc(Cl)cc2)CCN(Cc2ccc(C(F)(F)F)cc2)CC1 measurement=85
query_smiles=OC1(c2ccc(Cl)c(C(F)(F)F)c2)CCN(Cc2ccc(F)cc2)CC1 measurement=90
query_smiles=N#CC1(c2ccccc2)CCN(Cc2ccc3ccccc3c2)CC1 measurement=70

Entry OC1(c2ccc(Cl)c(C(F)(F)F)c2)CCN(Cc2ccc(C(F)(F)F)cc2)CC1 : reported inhibition = ?
55

Please give the result for OC1(c2ccc(Cl)c(C(F)(F)F)c2)CCN(Cc2ccc3ccccc3c2)CC1 too.
70

OC1(c2cccc(C(F)(F)F)c2)CCN(Cc2ccc3ccccc3c2)CC1 , same question.
85

---

# TARGET_SYSTEM: Nociceptin receptor (Homo sapiens)
# EXPERIMENT_NOTES: Binding affinity against human orphanin FQ receptor expressed in recombinant HEK 293 cells
# Assay type: cell-based, HEK293
ENDPOINT: pKi
Expect pKi as a plain number equal to -log10 of the molar concentration.

See these solved cases before continuing.
query_smiles=OC1(c2ccc(Cl)c(C(F)(F)F)c2)CCN(Cc2ccc(C(F)(F)F)cc2)CC1 measurement=5.92
query_smiles=N#CC1(c2ccccc2)CCN(Cc2ccc(Cl)c(Cl)c2)CC1 measurement=5.90
query_smiles=OC1(c2ccc(Cl)cc2)CCN(Cc2ccc3ccccc3c2)CC1 measurement=6.82
query_smiles=OC1(c2ccc(Cl)c(C(F)(F)F)c2)CCN(Cc2ccc3ccccc3c2)CC1 measurement=6.06
query_smiles=OC1(c2ccc(Cl)cc2)CCN(Cc2ccc(C(F)(F)F)cc2)CC1 measurement=6.51
query_smiles=OC1(c2cccc(C(F)(F)F)c2)CCN(Cc2ccc(F)cc2)CC1 measurement=6.16
query_smiles=OC1(c2cccc(C(F)(F)F)c2)CCN(Cc2ccc3ccccc3c2)CC1 measurement=6.15
query_smiles=N#CC1(c2ccccc2)CCN(Cc2ccc3ccccc3c2)CC1 measurement=5.96

// pKi lookup, key: OC1(c2cccc(C(F)(F)F)c2)CCN(Cc2ccc(C(F)(F)F)cc2)CC1
5.19

Again, but for N#CC1(c2ccccc2)CCN(Cc2cccc3ccccc23)CC1
6.08

Next compound: OC1(c2ccc(Cl)c(C(F)(F)F)c2)CCN(Cc2ccc(F)cc2)CC1
6.63

---

# TARGET_SYSTEM: Mu-type opioid receptor (Homo sapiens)
# Sequence (P35372 whole entry): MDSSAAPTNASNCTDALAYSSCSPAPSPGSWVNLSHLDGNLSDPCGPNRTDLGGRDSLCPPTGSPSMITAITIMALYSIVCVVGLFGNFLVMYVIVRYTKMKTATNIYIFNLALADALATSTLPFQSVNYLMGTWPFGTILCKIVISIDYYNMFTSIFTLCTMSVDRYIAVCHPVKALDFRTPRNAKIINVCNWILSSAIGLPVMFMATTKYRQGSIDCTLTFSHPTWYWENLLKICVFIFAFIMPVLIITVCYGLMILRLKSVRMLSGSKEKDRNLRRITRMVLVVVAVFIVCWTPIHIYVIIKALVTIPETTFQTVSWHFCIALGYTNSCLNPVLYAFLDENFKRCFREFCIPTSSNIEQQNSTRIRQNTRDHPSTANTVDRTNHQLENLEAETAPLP
# EXPERIMENT_NOTES: Selectivity ratio of Opioid receptor mu 1 binding to Orphanin FQ receptor
Form field: Selectivity ratio (one value per entry).
# output: bare number, no unit

Recorded Selectivity ratio, per entry:
compound="CCCC1CCC(N2CCC(O)(c3cccc(C(F)(F)F)c3)CC2)CC1 (centres undefined)" target_system="Mu-type opioid receptor (Homo sapiens)" endpoint="Selectivity ratio" measurement=0.34
compound=OC1(c2ccc(Cl)c(C(F)(F)F)c2)CCN(CC2CCCCCCC2)CC1 target_system="Mu-type opioid receptor (Homo sapiens)" endpoint="Selectivity ratio" measurement=2.64
compound=OC1(c2cccc(C(F)(F)F)c2)CCN(CC2CCCCCCC2)CC1 target_system="Mu-type opioid receptor (Homo sapiens)" endpoint="Selectivity ratio" measurement=1.11

# query: Selectivity ratio of entry CC(C)C1CCC(N2CCC(O)(c3ccc(Cl)c(C(F)(F)F)c3)CC2)CC1 (centres undefined)
0.24

How about this compound: OC1(c2cccc(C(F)(F)F)c2)CCN(C2CCC3CCCCC3C2)CC1 (centres undefined)
1.75

Request: OC1(c2cccc(C(F)(F)F)c2)CCN(CCC(c2ccccc2)c2ccccc2)CC1
0.01

Then OC1(c2ccc(Cl)c(C(F)(F)F)c2)CCN(CCC(c2ccccc2)c2ccccc2)CC1 ?
0.02

Follow-up entry: OC1(c2ccc(Cl)c(C(F)(F)F)c2)CCN(C2Cc3ccccc3C2)CC1
0.23

Next: OC1(c2ccc(Cl)cc2)CCN(CC2CCCCCCC2)CC1
1.25
